test: Plasma pharmacokinetics and liver distribution study in female BALB/c mice; assay type: in vivo, mouse; settings: female, BALB/c, mouse; ip, Dose: 100 mg/kg, plasma; read-out: PK (ip, plasma/liver) Tmax, plasma
The compounds listed here are annotated with their Tmax.
Numeric answer only, unit min assumed.

CC(C)(C)[S@@+]([O-])N1Cc2cc(C(=O)NCc3ccc4c(c3)OCO4)nc(-c3cccc(-c4cccnc4)c3)c2[C@H]1CCO [drawing 329]	30

# ---- query compound ----
Give the measured Tmax of CC(C)(C)[S@@+]([O-])N1Cc2cc(C(=O)NCc3ccccc3F)nc(-c3cccc(-c4cccnc4)c3)c2[C@H]1CCO [drawing 330] .
60

====

assay: Plasma pharmacokinetics and liver distribution study in female BALB/c mice; format: in vivo, mouse; details: female, BALB/c, mouse; po, Dose: 50 mg/kg, plasma; read-out: PK (po, plasma/liver) Tmax, plasma
Experimental Readout: Tmax
Note to self: number, then unit, no commentary.

// query Tmax value for entry CC(C)NC(=O)N1Cc2cc(C(=O)NCC(F)(F)F)nc(-c3cccc(-c4cc5ccccc5o4)c3)c2[C@H]1CCO [drawing 328]
15 min

====

assay: Plasma pharmacokinetics and liver distribution study in female BALB/c mice; type: in vivo, mouse; details: female, BALB/c, mouse; ip, Dose: 100 mg/kg, liver; read-out: PK (ip, plasma/liver) t1/2, liver (converted)
Experimental Readout: half-life (h)
Express your answer in h, writing the number without its unit.

CC(C)(C)[S@@+]([O-])N1Cc2cc(C(=O)NCc3ccc4c(c3)OCO4)nc(-c3cccc(-c4cccnc4)c3)c2[C@H]1CCO [drawing 329]	3.5

What value of measured half-life is listed for CC(C)(C)[S@@+]([O-])N1Cc2cc(C(=O)NCc3ccccc3F)nc(-c3cccc(-c4cccnc4)c3)c2[C@H]1CCO [drawing 330] ?
4.6

====

experiment: Plasma pharmacokinetics in female BALB/c mice (ip and po); format: in vivo, mouse; conditions: female, BALB/c, mouse; po, 50 mg/kg, plasma, mice; read-out: PK (po, 50 mg/kg) AUC
Experimental Readout: AUC (µM·h)
Report the figure in µM·h without appending any unit label.

CN(C)CC#Cc1cccc(-c2nc(C(=O)NCc3ccc4c(c3)OCO4)cc3c2[C@@H](CCO)N([S@+]([O-])C(C)(C)C)C3)c1	24.3

# ---- query compound ----
Can you share its AUC? I mean this compound: CN(C)CC#Cc1cccc(-c2nc(C(=O)N[C@@H]3CCN(Cc4ccccc4)C3)cc3c2[C@@H](CCO)N([S@+]([O-])C(C)(C)C)C3)c1
5.2

====

Experiment: Plasma pharmacokinetics and liver distribution study in female BALB/c mice
Type: in vivo, mouse
Details: female, BALB/c, mouse; po, Dose: 100 mg/kg, liver; read-out: PK (po, plasma/liver) Area under the curve (AUCinf), liver
Description: A plasma pharmacokinetics and liver distribution study of selected compounds, including Pyrrolopyridine-008 (2015-foleyc-216), Pyrrolopyridine-D20-ent (2015-foleyc-217), and Pyrrolopyridine-M03 (2015-foleyc-218), in female BALB/c mice was conducted following a single intraperitoneal and oral administration. […] All samples were processed for analysis by protein precipitation using acetonitrile and analyzed with fit-for-purpose LC-MS/MS method (LLOQ: 2.01 ng/mL for plasma and 50.30 ng/g for liver). […]
Experimental Readout: AUC(0-inf) (µM·h)
Kindly answer with a numeric value in µM·h, unit omitted.

CC(C)(C)[S@@+]([O-])N1Cc2cc(C(=O)NCc3ccccc3F)nc(-c3cccc(-c4cccnc4)c3)c2[C@H]1CCO [drawing 330]	125

// next entry
Entry CC(C)(C)[S@@+]([O-])N1Cc2cc(C(=O)NCc3ccc4c(c3)OCO4)nc(-c3cccc(-c4cccnc4)c3)c2[C@H]1CCO [drawing 329] : reported AUC(0-inf) = ?
238

====

test system: Trypanosoma cruzi parasites; assay: Trypanosoma cruzi in vitro IC50 (structure-activity analyses); format: cell-based; settings: infection with Trypanosoma cruzi parasites for 72 hours and treatment with the compound for 72 hours
Recorded measurements of pIC50, one per entry
The scale used: pIC50 is minus the common logarithm of the concentration in molar units.

CN(C)CC#Cc1cccc(-c2nc(C(=O)NCc3ccc4c(c3)OCO4)cc3c2CN([S@+]([O-])C(C)(C)C)C3)c1	6.31
CN(C)CC#Cc1cccc(-c2nc(C(=O)N[C@@H]3CCN(Cc4ccccc4)C3)cc3c2[C@@H](CCO)N([S@+]([O-])C(C)(C)C)C3)c1	7.32

Let us examine a further case.
For Trypanosoma cruzi parasites, provide pIC50 of CC(C)(C)[S@@+]([O-])N1Cc2cc(C(=O)N[C@@H]3CCN(Cc4ccccc4)C3)nc(-c3cccc(Br)c3)c2[C@H]1CCO please.
5.55

====

The reader will find reported half-life values listed item by item below.
assay: Plasma pharmacokinetics in female BALB/c mice (ip and po); type: in vivo, mouse; conditions: female, BALB/c, mouse; po, 50 mg/kg, plasma, mice; read-out: PK (po, 50 mg/kg) t1/2 (converted)
Give the quantity in h, number only.

CN(C)CC#Cc1cccc(-c2nc(C(=O)NCc3ccc4c(c3)OCO4)cc3c2[C@@H](CCO)N([S@+]([O-])C(C)(C)C)C3)c1 [compound 21]	3.5

So what does the record say about half-life for CN(C)CC#Cc1cccc(-c2nc(C(=O)N[C@@H]3CCN(Cc4ccccc4)C3)cc3c2[C@@H](CCO)N([S@+]([O-])C(C)(C)C)C3)c1 [compound 37] ?
4.3

====

assay: Plasma pharmacokinetics and liver distribution study in female BALB/c mice; format: in vivo, mouse; conditions: female, BALB/c, mouse; po, Dose: 50 mg/kg, liver; read-out: PK (po, plasma/liver) Area under the curve (AUCinf), liver
Experimental Readout: AUC(0-inf) (µM·h)
Supply the numeric figure in µM·h, leaving out any unit text.

Entry under review: CC(C)NC(=O)N1Cc2cc(C(=O)NCC(F)(F)F)nc(-c3cccc(-c4cc5ccccc5o4)c3)c2[C@H]1CCO [drawing 328] . Reported AUC(0-inf)?
108

====

Examples of compounds with documented solubility at 24 h follow.
assay: Kinetic solubility assay; format: physicochemical; settings: SGF pH 1.2 buffer, 24 °C, pH 1.2, simulated gastric fluid, kinetic from dmso stock, SGF pH1.2, 2.0% DMSO, ambient temperature, read-out: Solubility LogS, at pH 1.2 (converted)
// note: answer is a bare numeric in µM

CC(C)NC(=O)N1Cc2cc(C(=O)NCC(F)(F)F)nc(-c3cccc(-c4cc5ccccc5o4)c3)c2[C@H]1CCO	7.94
CC(C)(C)[S@@+]([O-])N1Cc2cc(C(=O)NCc3ccc4c(c3)OCO4)nc(-c3cccc(-c4cccnc4)c3)c2[C@H]1CCO	158

Now consider the entry below.
// solubility at 24 h lookup, key: CC(C)(C)[S@+]([O-])N1Cc2cc(C(=O)NCc3ccccc3F)nc(-c3cccc(-c4cccnc4)c3)c2[C@@H]1CCO
158

====

assay: Plasma pharmacokinetics in female BALB/c mice (ip and po); format: in vivo, mouse; conditions: female, BALB/c, mouse; po, 50 mg/kg, plasma, mice; read-out: PK (po, 50 mg/kg) Cmax
The entries below come with measured Cmax values attached.
# value in µM; strip the unit string

CN(C)CC#Cc1cccc(-c2nc(C(=O)NCc3ccc4c(c3)OCO4)cc3c2[C@@H](CCO)N([S@+]([O-])C(C)(C)C)C3)c1	11.8

// moving on: another record for Cmax
Value lookup for Cmax; key = CN(C)CC#Cc1cccc(-c2nc(C(=O)N[C@@H]3CCN(Cc4ccccc4)C3)cc3c2[C@@H](CCO)N([S@+]([O-])C(C)(C)C)C3)c1
1.7

====

Listing: IC50 at 48 h of selected molecules
experiment: Cytotoxicity screening in MRC5 (CellTiter Glo, fluorescence microscopy); format: cell-based; settings: human, MRC5 cells, read-out: MRC5 IC50, Cellular ATP
Give just the numeric value; µM need not be written.

CN(C)CC#Cc1cccc(-c2nc(C(=O)N[C@@H]3CCN(Cc4ccccc4)C3)cc3c2[C@@H](CCO)N([S@+]([O-])C(C)(C)C)C3)c1	54.1

If you can, please state the reported IC50 at 48 h value of CN(C)CC#Cc1cccc(-c2nc(C(=O)NCc3ccc4c(c3)OCO4)cc3c2[C@@H](CCO)N([S@+]([O-])C(C)(C)C)C3)c1 .
44.7

====

test: Plasma pharmacokinetics in female BALB/c mice (ip and po); assay type: in vivo, mouse; details: female, BALB/c, mouse, plasma, oral; 50 mg/kg, mice; read-out: Relative Bioavailability, Frel (po/ip)
Each entry below carries its recorded bioavailability.
Don't forget the unit after the number, please.

CN(C)CC#Cc1cccc(-c2nc(C(=O)N[C@@H]3CCN(Cc4ccccc4)C3)cc3c2[C@@H](CCO)N([S@+]([O-])C(C)(C)C)C3)c1	47%

Any idea what bioavailability was measured for CN(C)CC#Cc1cccc(-c2nc(C(=O)NCc3ccc4c(c3)OCO4)cc3c2[C@@H](CCO)N([S@+]([O-])C(C)(C)C)C3)c1 ?
48%
